Target or system Vascular endothelial growth factor receptor 1 (Homo sapiens, UniProt P17948); metric IC50; compiled from varied reports.

{"Molecule": "Fc1ccc(-c2c[nH]c3ncccc23)c(F)c1", "Result": "≤ 10 µM"}

Prompt line: Look at this molecule and give its reported IC50. Cn1cc(-c2cnc3[nH]cc(C(=O)c4c(Cl)ccc(OCC(F)(F)F)c4Cl)c3c2)cn1
Response line: ≤ 10 µM

Prompt line: Input CCC(Nc1nc2ccccc2n1-c1ncnc(Nc2cc(OC)c(OC)c(OC)c2)n1)c1ccccc1 (centres unmarked)
Response line: 0.782 to 4.69 µM

Prompt line: How about this molecule: Cc1nc(NCc2ccc(C(F)(F)F)cc2)ccc1Cc1c[nH]c2ncccc12
Response line: ≤ 10 µM

Prompt line: Let us now turn to O=C(c1cccc(NS(=O)(=O)c2ccccc2)c1F)c1c[nH]c2ncc(Cl)cc12
Response line: ≤ 10 µM
